System: Mycobacterium tuberculosis
experimental.details: Antitubercular activity against dormant stage of Mycobacterium tuberculosis H37Ra ATCC 25177 after 12 days by XRMA
Format: functional, organism-based
condition.parameters: H37Ra ATCC 25177, 288 h
Numbered stars: 1 amine (or outer) side, 2 acyl side, 3 side chain; on linkers, the order of the positions; unused ones are H or OH. Square brackets hold non-standard residues; d marks the D form. Peptide text beside a SMILES is read from it. Pro(N-(CH2)3Gua,cis-4-NH-) = N=C(N)NCCCN1C[C@@H](N[*:1])C[C@H]1C(=O)[*:2]; βAla = NCCC(=O)O
reported.property: IC50 (nM)
Report as a plain number; the unit nM is understood.

// IC50 lookup, molecule = CC(=O)N[C@@H](Cc1ccccc1)C(=O)NCC(=O)N[C@H]1C[C@@H](C(=O)N[C@@H](CCCCN)C(=O)N[C@@H](CCCCN)C(=O)N[C@@H](CCCNC(=N)N)C(=O)N[C@H]2C[C@@H](C(=O)N[C@@H](CCC(N)=O)C(=O)N[C@@H](CCCNC(=N)N)C(=O)N[C@@H](CCCNC(=N)N)C(=O)N[C@H]3C[C@@H](C(=O)NCCC(N)=O)N(CCCNC(=N)N)C3)N(CCCNC(=N)N)C2)N(CCCNC(=N)N)C1 (Ac-FG[Pro(N-(CH2)3Gua,cis-4-NH-)]KKR[Pro(N-(CH2)3Gua,cis-4-NH-)]QRR[Pro(N-(CH2)3Gua,cis-4-NH-)][βAla]-NH2) , result: 2200

###

experimental.details: Drug degradation assessed as pepsin (unknown origin)-mediated compound hydrolysis by measuring remaining compound levels at 12 hrs by RP-HPLC method
Assay type: ADME
condition.parameters: human, read-out: Stability
reported.property: remaining at 12 h

Looking up "CC(=O)N[C@@H](Cc1ccccc1)C(=O)NCC(=O)N[C@H]1C[C@@H](C(=O)N[C@@H](CCCCN)C(=O)N[C@@H](CCCCN)C(=O)N[C@@H](CCCNC(=N)N)C(=O)N[C@H]2C[C@@H](C(=O)N[C@@H](CCC(N)=O)C(=O)N[C@H]3C[C@@H](C(=O)N[C@@H](CCCNC(=N)N)C(=O)N[C@H]4C[C@@H](C(=O)NCCC(N)=O)N(CCCNC(=N)N)C4)N(CCCNC(=N)N)C3)N(CCCNC(=N)N)C2)N(CCCNC(=N)N)C1" , I see its remaining at 12 h listed as 100%

Now for another entry.
remaining at 12 h reading for "CC(=O)N[C@@H](Cc1ccccc1)C(=O)NCC(=O)N[C@@H](CCCNC(=N)N)C(=O)N[C@@H](CCCCN)C(=O)N[C@@H](CCCCN)C(=O)N[C@@H](CCCNC(=N)N)C(=O)N[C@@H](CCCNC(=N)N)C(=O)N[C@@H](CCC(N)=O)C(=O)N[C@@H](CCCNC(=N)N)C(=O)N[C@@H](CCCNC(=N)N)C(=O)N[C@@H](CCCNC(=N)N)C(N)=O" : 89%

###

Entries and their measured IC50 follow.
Test system: Mycobacterium tuberculosis
experimental.details: Antitubercular activity against dormant stage of Mycobacterium tuberculosis H37Ra ATCC 25177 after 12 days by XRMA
Type: functional, organism-based
condition.parameters: H37Ra ATCC 25177, 288 h
Numbered stars: 1 amine (or outer) side, 2 acyl side, 3 side chain; on linkers, the order of the positions; unused ones are H or OH. Square brackets hold non-standard residues; d marks the D form. Peptide text beside a SMILES is read from it. Pro(N-(CH2)3Gua,cis-4-NH-) = N=C(N)NCCCN1C[C@@H](N[*:1])C[C@H]1C(=O)[*:2]; Pro(cis-4-guanidino) = NC(N)=N[C@@H]1CN[C@H](C(=O)O)C1; βAla = NCCC(=O)O
Dear colleague, please return just the value in µM, with no unit written.

Known results for compounds:
Data point: "CC(=O)N[C@@H](Cc1ccccc1)C(=O)NCC(=O)N[C@H]1C[C@@H](C(=O)N[C@@H](CCCCN)C(=O)N[C@@H](CCCCN)C(=O)N[C@@H](CCCNC(=N)N)C(=O)N[C@H]2C[C@@H](C(=O)N[C@@H](CCC(N)=O)C(=O)N[C@H]3C[C@@H](C(=O)N[C@@H](CCCNC(=N)N)C(=O)N[C@H]4C[C@@H](C(=O)NCCC(N)=O)N(CCCNC(=N)N)C4)N(CCCNC(=N)N)C3)N(CCCNC(=N)N)C2)N(CCCNC(=N)N)C1" ; IC50 = 3.7

The value of IC50 measured for the compound CC(=O)N[C@@H](Cc1ccccc1)C(=O)NCC(=O)N[C@@H](CCCNC(=N)N)C(=O)N[C@@H](CCCCN)C(=O)N[C@@H](CCCCN)C(=O)N[C@@H](CCCNC(=N)N)C(=O)N[C@@H](CCCNC(=N)N)C(=O)N[C@@H](CCC(N)=O)C(=O)N[C@@H](CCCNC(=N)N)C(=O)N[C@@H](CCCNC(=N)N)C(=O)N[C@H]1C[C@@H](C(=O)NCCC(N)=O)N(CCCNC(=N)N)C1 (Ac-FGRKKRRQRR[Pro(N-(CH2)3Gua,cis-4-NH-)][βAla]-NH2) turned out to be 1.97

Now take the following compound into account.
// IC50 value for CC(=O)N[C@@H](Cc1ccccc1)C(=O)NCC(=O)N[C@@H](CCCNC(=N)N)C(=O)N[C@@H](CCCCN)C(=O)N[C@@H](CCCCN)C(=O)N1C[C@@H](NC(=N)N)C[C@H]1C(=O)N[C@@H](CCCNC(=N)N)C(=O)N[C@@H](CCC(N)=O)C(=O)N[C@@H](CCCNC(=N)N)C(=O)N[C@@H](CCCNC(=N)N)C(=O)N[C@@H](CCCNC(=N)N)C(=O)NCCC(N)=O (Ac-FGRKK[Pro(cis-4-guanidino)]RQRRR[βAla]-NH2) : 2.51

Value source: ChEMBL document CHEMBL4152250
